Test system: α1-adrenoceptor (3H-prazosin binding sites)
Test: displacement of 3H-prazosin from rat cerebral cortical (brain) membranes
Details: discussion of Table 1
recordedEndpoint: affinity to alpha1-adrenoceptors (in words)

>>> df
                                   compound  endpointvalue
0  COc1cc2nc(N3CCN(C(=O)n4ccnc4)CC3)nc(N)c2cc1OC [Compound 2]   low affinity
1  COc1cc2nc(N3CCN(C(=O)CBr)CC3)nc(N)c2cc1OC [Compound 3]   low affinity
2  C/C=C/C=C/C(=O)N1CCN(c2nc(N)c3cc(OC)c(OC)cc3n2)CC1 [Compound 6]  high affinity
3  COc1cc2nc(N3CCN(S(=O)(=O)c4cccs4)CC3)nc(N)c2cc1OC [Compound 44]   low affinity
4  COc1cc2nc(N3CCN(C(=O)C4CC5C=CC4C5)CC3)nc(N)c2cc1OC (stereo not drawn) [Compound 46]  high affinity

###

Molecular target: alpha2-adrenoreceptors (3H-yohimbine binding sites)
Assay: displacement of 3H-yohimbine from rat brain membranes
Settings: FIG. 1, rat brain cortex membranes; read-out: Apparent Ki at 3H-yohimbine binding sites
recordedEndpoint: Ki (nM)

                                   compound  unittext  endpointvalue
0  COc1cc2nc(N3CCN(C(=O)C4=CC5C=CC4CC5)CC3)nc(N)c2cc1OC (stereo not shown) [Compound 47]        nM            884

###

Biological target: α1-adrenoceptor (3H-prazosin binding sites)
Test: displacement of 3H-prazosin from rat cerebral cortical (brain) membranes
Conditions: 3H-prazosin displacement, rat cerebral cortical membranes
Lab note: anything with -logIC50 below 8 is marked True; values at 8 or higher are marked False.

In [3]: df
Out[3]:
                                    compound  answerlabel
 0  COC(=O)/C=C/C(=O)N1CCN(c2nc(N)c3cc(OC)c(OC)cc3n2)CC1 [Compound 4]        False
 1  COc1cc2nc(N3CCN(C(=S)Nc4ccc(N=C=S)cc4)CC3)nc(N)c2cc1OC [Compound 34]         True
 2  COc1cc2nc(N3CCN(S(=O)(=O)c4cccs4)CC3)nc(N)c2cc1OC [Compound 44]         True
 3  COc1cc2nc(N3CCN(C(=O)C=Cc4c(F)c(F)c(F)c(F)c4F)CC3)nc(N)c2cc1OC [Compound 14]         True
 4  COC(=O)C=Cc1ccc(NC(=S)N2CCN(c3nc(N)c4cc(OC)c(OC)cc4n3)CC2)cc1 [Compound 37]         True
 5  COc1cc2nc(N3CCN(C(=O)/C=C/c4ccc(NC(=O)CBr)cc4)CC3)nc(N)c2cc1OC [Compound 18]         True
 6  COc1cc2nc(N3CCN(C(=S)Nc4cccc(N=C=S)c4)CC3)nc(N)c2cc1OC [Compound 35]         True
 7  COc1cc2nc(N3CCN(C(=O)C(=Cc4ccccc4)c4ccccc4)CC3)nc(N)c2cc1OC [Compound 22]         True
 8  COc1cc2nc(N3CCN(C(=O)CBr)CC3)nc(N)c2cc1OC [Compound 3]         True
 9  COc1cc2nc(N3CCN(C(=O)C4C(C=C(C)C)C4(C)C)CC3)nc(N)c2cc1OC (stereo not shown) [Compound 27]         True
10  COc1ccc(/C=C/C(=O)N2CCN(c3nc(N)c4cc(OC)c(OC)cc4n3)CC2)cc1 [Compound 15]        False

src = patent US5110927A
